Target: T1, CAPRIN-1 protein expressed on the membrane surface of human cancer cells (human, UniProt Q14444 2-709)
T1 sequence (looked up): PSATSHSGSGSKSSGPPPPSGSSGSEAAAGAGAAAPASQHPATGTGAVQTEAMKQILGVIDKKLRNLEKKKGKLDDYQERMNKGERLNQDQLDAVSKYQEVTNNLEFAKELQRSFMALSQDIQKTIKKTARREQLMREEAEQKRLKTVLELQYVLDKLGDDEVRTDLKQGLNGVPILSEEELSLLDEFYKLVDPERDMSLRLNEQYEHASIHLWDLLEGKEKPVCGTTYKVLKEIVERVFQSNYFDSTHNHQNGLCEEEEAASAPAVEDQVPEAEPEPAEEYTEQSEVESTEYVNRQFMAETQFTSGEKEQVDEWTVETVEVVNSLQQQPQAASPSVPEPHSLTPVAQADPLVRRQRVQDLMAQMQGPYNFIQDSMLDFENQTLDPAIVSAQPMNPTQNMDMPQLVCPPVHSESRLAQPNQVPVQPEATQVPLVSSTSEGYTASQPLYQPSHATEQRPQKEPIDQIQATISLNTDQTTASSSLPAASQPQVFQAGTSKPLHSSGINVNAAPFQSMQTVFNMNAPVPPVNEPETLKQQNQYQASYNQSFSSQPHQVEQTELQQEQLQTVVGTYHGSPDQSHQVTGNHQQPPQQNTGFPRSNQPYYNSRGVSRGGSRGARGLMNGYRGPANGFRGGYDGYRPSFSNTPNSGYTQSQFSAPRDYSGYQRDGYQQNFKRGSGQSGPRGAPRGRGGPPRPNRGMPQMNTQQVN
Assay: cell-based or functional assay
Would you kindly list ADCC cytotoxic activity (51Cr release) on A-673 for each of these binders?

[ask] Need ADCC cytotoxic activity (51Cr release) on A-673 of humanized antibody #4 (antibody, V domains shown) VH: EVQLVESGGGLVQPGGSLRLSCAASGFSLSSHSLGWVRQAPGKGLEWIGDIRSGGSAYYANWAKGRFTISRDNSKNTLYLQMNSLRAEDTAVYFCTRTNGPSDLTNRLDLWGQGTLVTVSS VL: EIVLTQSPSSLSASVGDRVTINCQASQSLYNNENLAWFQQKPGKVPKRLIYGASTLASGVSSRFSGSGSGTEFTLTISNLQPEDFATYYCLGEFSCGSADCFAFGGGTKVEIK , thanks.
[reply] ≥ 46%

[ask] Next up: human-rabbit chimeric anti-CAPRIN-1 antibody (antibody, V domains shown) VH: QSLEESGGRLVTPGTPLTLTCTASGFSLSSHSLGWVRQAPGKGLEWIGDIRSGGSAYYANWAKGRFTISRTSTTVALKMTSLTTEDTATYFCTRTNGPSDLTNRLDLWGQGTLVTVSS VL: QVLTQTPSSVSAAVGGTVTINCQASQSLYNNENLAWFQQKPGQPPKRLIYGASTLASGVSSRFKGSGSGTQFTLTIGDVQCDDAAIYYCLGEFSCGSADCFAFGGGTEVVVK
[reply] ≥ 40%

[ask] Next up: humanized antibody #2 (antibody, V domains shown) VH: EVQLVESGGGLVQPGGSLRLSCAASGFSLSSHSLGWVRQAPGKGLEWIGDIRSGGSAYYANWAKGRFTISRDNSKNTLYLQMNSLRAEDTAVYYCTRTNGPSDLTNRLDLWGQGTLVTVSS VL: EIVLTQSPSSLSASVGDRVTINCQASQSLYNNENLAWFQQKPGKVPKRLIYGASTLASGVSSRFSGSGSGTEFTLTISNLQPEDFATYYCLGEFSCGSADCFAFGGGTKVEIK
[reply] ≥ 46%

[ask] Next up: humanized antibody #0 (antibody, V domains shown) VH: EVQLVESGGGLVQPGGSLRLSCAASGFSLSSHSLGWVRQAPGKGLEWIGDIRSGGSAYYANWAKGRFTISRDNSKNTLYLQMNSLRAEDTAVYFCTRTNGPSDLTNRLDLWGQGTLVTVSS VL: AIQMTQSPSSLSASVGDRVTINCQASQSLYNNENLAWFQQKPGKAPKRLIYGASTLASGVSSRFSGSGSGTDFTLTISSLQPEDFAIYYCLGEFSCGSADCFAFGGGTKVEIK
[reply] ≥ 40%

[ask] Next up: humanized antibody #6 (antibody, V domains shown) VH: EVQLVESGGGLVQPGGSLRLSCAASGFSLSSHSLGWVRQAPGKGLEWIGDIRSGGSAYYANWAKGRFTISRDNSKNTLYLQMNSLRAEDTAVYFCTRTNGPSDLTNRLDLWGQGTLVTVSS VL: QVLTQSPSSLSASVGDRVTINCQASQSLYNNENLAWFQQKPGKVPKRLIYGASTLASGVSSRFSGSGSGTEFTLTISSLQCEDFAIYYCLGEFSCGSADCFAFGGGTKVEIK
[reply] ≥ 50%

[ask] Next up: humanized antibody #1 (antibody, V domains shown) VH: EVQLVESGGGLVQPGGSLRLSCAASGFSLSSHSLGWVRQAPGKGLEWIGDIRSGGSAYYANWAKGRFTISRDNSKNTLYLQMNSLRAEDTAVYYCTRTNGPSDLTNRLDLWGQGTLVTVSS VL: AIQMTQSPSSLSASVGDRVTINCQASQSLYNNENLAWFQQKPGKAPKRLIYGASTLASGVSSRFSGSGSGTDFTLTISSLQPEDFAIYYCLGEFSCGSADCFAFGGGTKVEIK
[reply] ≥ 40%
